experimental_target: Beta Secretase enzyme (BACE) (Homo sapiens, UniProt P56817)
Sequence (P56817 46-501, species assumed): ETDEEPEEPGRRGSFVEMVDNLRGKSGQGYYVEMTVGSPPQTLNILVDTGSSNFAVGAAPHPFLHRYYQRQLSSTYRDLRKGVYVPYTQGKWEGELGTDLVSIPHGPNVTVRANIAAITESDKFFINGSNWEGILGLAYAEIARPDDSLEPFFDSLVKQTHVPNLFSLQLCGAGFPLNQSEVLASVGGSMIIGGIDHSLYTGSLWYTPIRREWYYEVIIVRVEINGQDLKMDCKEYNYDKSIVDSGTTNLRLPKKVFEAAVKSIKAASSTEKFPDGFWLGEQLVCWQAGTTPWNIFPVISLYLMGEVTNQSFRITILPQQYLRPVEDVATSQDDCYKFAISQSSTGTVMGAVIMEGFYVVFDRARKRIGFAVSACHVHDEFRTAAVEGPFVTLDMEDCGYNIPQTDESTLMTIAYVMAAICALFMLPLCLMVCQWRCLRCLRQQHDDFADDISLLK
measurement_description: In vitro enzymatic BACE FRET (fluorescence resonance energy transfer) assay
Type: biochemical
reported_conditions: average IC50, enzyme assay; read-out: BACE 1 FRET assay
pIC50: −log10 of the molar value.

{"entry_smiles": "CC1(C#Cc2cnc3c(c2)[C@]2(CSC(N)=N2)c2cc(-c4ccc(F)c(C#N)c4)ccc2O3)COC1", "experimental_target": "Beta Secretase enzyme (BACE) (Homo sapiens, UniProt P56817)", "pIC50": 8.80}
{"entry_smiles": "NC1=N[C@@]2(CO1)c1cc(-c3cccnc3F)ccc1Oc1c2cc(-c2ccccc2)nc1F", "experimental_target": "Beta Secretase enzyme (BACE) (Homo sapiens, UniProt P56817)", "pIC50": 8.82}
{"entry_smiles": "NC1=N[C@@]2(CO1)c1cc(-c3cccnc3F)ccc1Oc1cc(OC(F)(F)F)c(Br)cc12", "experimental_target": "Beta Secretase enzyme (BACE) (Homo sapiens, UniProt P56817)", "pIC50": 5.62}
{"entry_smiles": "COc1cncc(-c2ccc3c(c2)[C@@]2(COC(N)=N2)c2cc(OCC4(C)COC4)c(F)cc2O3)c1", "experimental_target": "Beta Secretase enzyme (BACE) (Homo sapiens, UniProt P56817)", "pIC50": 8.05}
{"entry_smiles": "COc1cc2c(c(F)c1F)Oc1ccc(Br)cc1[C@@]21COC(N)=N1", "experimental_target": "Beta Secretase enzyme (BACE) (Homo sapiens, UniProt P56817)", "pIC50": 5.96}
{"entry_smiles": "CC1(C)CC(c2cc3c(c(F)n2)Oc2ccc(-c4cccnc4F)cc2[C@]32CSC(N)=N2)=CCO1", "experimental_target": "Beta Secretase enzyme (BACE) (Homo sapiens, UniProt P56817)", "pIC50": 8.70}
{"entry_smiles": "CN(C)c1cc2c(cn1)Oc1ccc(-c3cccnc3)cc1[C@@]21COC(N)=N1", "experimental_target": "Beta Secretase enzyme (BACE) (Homo sapiens, UniProt P56817)", "pIC50": 7.37}
{"entry_smiles": "NC1=N[C@@]2(CO1)c1cc(-c3cnccc3F)ccc1Oc1c(F)cc(C3=CCCOC3)cc12", "experimental_target": "Beta Secretase enzyme (BACE) (Homo sapiens, UniProt P56817)", "pIC50": 9.22}
{"entry_smiles": "COc1nc(-c2ccnc(F)c2)cc2c1Oc1ccc(-c3cccnc3F)cc1[C@@]21COC(N)=N1", "experimental_target": "Beta Secretase enzyme (BACE) (Homo sapiens, UniProt P56817)", "pIC50": 8.96}
{"entry_smiles": "CC1(C)C[C@@H](c2cnc3c(c2)[C@]2(COC(N)=N2)c2cc(-c4cccnc4F)ccc2O3)CCO1", "experimental_target": "Beta Secretase enzyme (BACE) (Homo sapiens, UniProt P56817)", "pIC50": 8.48}
{"entry_smiles": "Cc1ccc(-c2cnc3c(c2)[C@]2(CSC(N)=N2)c2cc(C#CC4(C)COC4)ccc2O3)cn1", "experimental_target": "Beta Secretase enzyme (BACE) (Homo sapiens, UniProt P56817)", "pIC50": 8.27}
{"entry_smiles": "NC1=N[C@@]2(CO1)c1cc(-c3cccc(Cl)c3)ccc1Oc1cnc(-c3ccc(F)c(F)c3)cc12", "experimental_target": "Beta Secretase enzyme (BACE) (Homo sapiens, UniProt P56817)", "pIC50": 9.30}
{"entry_smiles": "NC1=N[C@]2(CO1)c1cc(C3=CCOCC3)ccc1Oc1ccc(-c3cncc(F)c3)cc12", "experimental_target": "Beta Secretase enzyme (BACE) (Homo sapiens, UniProt P56817)", "pIC50": 8.12}
{"entry_smiles": "NC1=N[C@@]2(CO1)c1cc(-c3cccnc3F)ccc1Oc1cnc(C3=CCCCC3)cc12", "experimental_target": "Beta Secretase enzyme (BACE) (Homo sapiens, UniProt P56817)", "pIC50": 9.40}
{"entry_smiles": "CC1(C)C=C(c2ccc3c(c2)[C@]2(COC(N)=N2)c2cc(-c4cncnc4)c(F)cc2O3)CCO1", "experimental_target": "Beta Secretase enzyme (BACE) (Homo sapiens, UniProt P56817)", "pIC50": 8.43}

FYI, the data here is from patent US8883782B2.
